Consider the following molecules; for each one, report its MIC.
tested on: wild-type E. coli A-1261; test: MIC against E. coli A-1261 in the absence or presence of alkaline phosphatase or esterase; assay type: cell-based; conditions: Escherichia coli; alkaline phosphatase 2 i.U./mL; read-out: MIC for E. coli A-1261 In the presence of an alkaline phosphatase (2 i.U./mL)
Give bare numbers, in µg/mL.

INSERT INTO measurements (structure_notation, measure, scale_unit, endpoint_result) VALUES
  ('C[C@@](CCN1Cc2cc(C#CC#C[C@H]3C[C@]3(F)COP(=O)(O)O)cn2C1=O)(C(=O)NO)S(C)(=O)=O', 'MIC', 'µg/mL', 0.5);

Could you report MIC for every entry in the following list?
1. C[C@@](CCN1Cc2cc(C#CC#CC3(CO)CC3)cn2C1=O)(C(=O)NOP(=O)(O)O)S(C)(=O)=O.N
2. C[C@@](CCN1Cc2cc(C#CC#CC3(COC(=O)CN4CCOCC4)CC3)cn2C1=O)(C(=O)NO)S(C)(=O)=O
3. C[C@@](CCN1Cc2cc(C#CC#C[C@H]3C[C@@H]3COP(=O)(O)O)cn2C1=O)(C(=O)NO)S(C)(=O)=O

Found:
1: 1; 2: 1; 3: 0.25
